# kinase still bound, per cent of control listing for each entry below
ASSAY SYSTEM: PRKCH (human) (UniProt P24723)
Sequence (P24723 whole entry, looked up): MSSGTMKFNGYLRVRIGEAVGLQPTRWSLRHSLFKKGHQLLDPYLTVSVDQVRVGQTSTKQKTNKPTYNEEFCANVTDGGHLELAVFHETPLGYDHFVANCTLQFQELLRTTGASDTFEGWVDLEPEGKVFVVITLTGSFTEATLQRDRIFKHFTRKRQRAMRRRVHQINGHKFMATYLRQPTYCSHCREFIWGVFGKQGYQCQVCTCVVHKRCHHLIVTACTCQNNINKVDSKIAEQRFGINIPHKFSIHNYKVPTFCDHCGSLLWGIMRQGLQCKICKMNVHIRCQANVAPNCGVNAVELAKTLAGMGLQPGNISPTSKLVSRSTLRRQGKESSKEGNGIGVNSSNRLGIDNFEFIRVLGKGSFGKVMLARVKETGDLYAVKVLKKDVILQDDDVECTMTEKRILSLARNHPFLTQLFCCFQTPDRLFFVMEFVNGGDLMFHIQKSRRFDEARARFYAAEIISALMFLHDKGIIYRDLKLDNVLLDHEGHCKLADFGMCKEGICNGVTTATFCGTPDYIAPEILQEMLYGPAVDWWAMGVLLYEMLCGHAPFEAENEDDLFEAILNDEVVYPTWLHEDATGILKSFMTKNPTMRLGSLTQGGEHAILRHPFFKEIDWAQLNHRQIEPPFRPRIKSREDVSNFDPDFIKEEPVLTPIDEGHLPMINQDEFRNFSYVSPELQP
METHOD DESCRIPTION: KINOMEscan competition binding
PARTICULARS: compound 10.0 µM

Sample records with kinase still bound, per cent of control:
COc1cc(N2CCN(C)CC2)ccc1Nc1ncc2c(n1)N(C)c1ccccc1C(=O)N2C 100%
CN(C)C/C=C/C(=O)Nc1ccc(C(=O)Nc2cccc(Nc3nccc(-c4cccnc4)n3)c2)cc1 100%
CCN(CC)CCCCNc1ncc2c(n1)N(C)C(=O)N(c1c(Cl)c(OC)cc(OC)c1Cl)C2 100%
COc1cc2ncn(-c3cc(OCc4ccccc4C(F)(F)F)c(C(N)=O)s3)c2cc1OC 100%

Kindly consider the entry below.
## Input Would you kindly share the measured kinase still bound, per cent of control for `O=C1NC(=O)/C(=C/c2ccc3nccc(-c4ccncc4)c3c2)S1` ?
## Output 88%
